target: PI3K (p110α/p85α) (Homo sapiens); construct: purchased Carna Biosciences 07CBS-0402A; assay: PI3K Activity Assay (ADP Hunter Plus); type: biochemical; conditions: quantitative results; read-out: PI3Kα IC50
pIC50: −log10 of the molar value.
Listed next: entries and their corresponding pIC50.
Measurement name: pIC50

mol=FC(F)(F)c1cn2cc(-c3cccc4[nH]ncc34)nc(N3CCOCC3)c2n1 target_under_test="PI3K (p110α/p85α) (Homo sapiens)" measurement_name=pIC50 quantitative_readout=5.74
mol=CCOC(=O)c1cn2cc(-c3cccc4[nH]ncc34)nc(N3CCOCC3)c2n1 target_under_test="PI3K (p110α/p85α) (Homo sapiens)" measurement_name=pIC50 quantitative_readout=6.17
mol=Cc1cn2c(Br)c(-c3cccc4[nH]ncc34)nc(N3CCOCC3)c2n1 target_under_test="PI3K (p110α/p85α) (Homo sapiens)" measurement_name=pIC50 quantitative_readout=4.92
mol=CN1CCN(Cc2cn3cc(-c4cccc(O)c4)nc(N4CCOCC4)c3n2)CC1 target_under_test="PI3K (p110α/p85α) (Homo sapiens)" measurement_name=pIC50 quantitative_readout=4.57
mol=CS(=O)(=O)N1CCN(C(=O)c2cn3cc(-c4cccc5[nH]ncc45)nc(N4CCOCC4)c3n2)CC1 target_under_test="PI3K (p110α/p85α) (Homo sapiens)" measurement_name=pIC50 quantitative_readout=6.60
mol=CS(=O)(=O)N1CCN(Cc2cn3cc(-c4ccc(C(N)=O)cc4)nc(N4CCOCC4)c3n2)CC1 target_under_test="PI3K (p110α/p85α) (Homo sapiens)" measurement_name=pIC50 quantitative_readout=4.96
mol=CN1CCN(C(=O)c2cn3cc(-c4cccc5[nH]ncc45)nc(N4CCOCC4)c3n2)CC1 target_under_test="PI3K (p110α/p85α) (Homo sapiens)" measurement_name=pIC50 quantitative_readout=6.13
mol=Cc1cn2cc(-c3cccnc3)nc(N3CCOCC3)c2n1 target_under_test="PI3K (p110α/p85α) (Homo sapiens)" measurement_name=pIC50 quantitative_readout=5.00
mol=CNC(=O)Nc1ccc(-c2cn3cc(C)nc3c(N3CCOCC3)n2)cc1 target_under_test="PI3K (p110α/p85α) (Homo sapiens)" measurement_name=pIC50 quantitative_readout=5.52

----------
pIC50 by entry:
target: PI3K (p110α/p85α) (Homo sapiens, UniProt P42336); construct: purchased Carna Biosciences 07CBS-0402A; test: PI3K Activity Assay (ADP Hunter Plus); type: biochemical; settings: quantitative results of Table 4; read-out: PI3Kα IC50
Sequence (P42336 whole entry): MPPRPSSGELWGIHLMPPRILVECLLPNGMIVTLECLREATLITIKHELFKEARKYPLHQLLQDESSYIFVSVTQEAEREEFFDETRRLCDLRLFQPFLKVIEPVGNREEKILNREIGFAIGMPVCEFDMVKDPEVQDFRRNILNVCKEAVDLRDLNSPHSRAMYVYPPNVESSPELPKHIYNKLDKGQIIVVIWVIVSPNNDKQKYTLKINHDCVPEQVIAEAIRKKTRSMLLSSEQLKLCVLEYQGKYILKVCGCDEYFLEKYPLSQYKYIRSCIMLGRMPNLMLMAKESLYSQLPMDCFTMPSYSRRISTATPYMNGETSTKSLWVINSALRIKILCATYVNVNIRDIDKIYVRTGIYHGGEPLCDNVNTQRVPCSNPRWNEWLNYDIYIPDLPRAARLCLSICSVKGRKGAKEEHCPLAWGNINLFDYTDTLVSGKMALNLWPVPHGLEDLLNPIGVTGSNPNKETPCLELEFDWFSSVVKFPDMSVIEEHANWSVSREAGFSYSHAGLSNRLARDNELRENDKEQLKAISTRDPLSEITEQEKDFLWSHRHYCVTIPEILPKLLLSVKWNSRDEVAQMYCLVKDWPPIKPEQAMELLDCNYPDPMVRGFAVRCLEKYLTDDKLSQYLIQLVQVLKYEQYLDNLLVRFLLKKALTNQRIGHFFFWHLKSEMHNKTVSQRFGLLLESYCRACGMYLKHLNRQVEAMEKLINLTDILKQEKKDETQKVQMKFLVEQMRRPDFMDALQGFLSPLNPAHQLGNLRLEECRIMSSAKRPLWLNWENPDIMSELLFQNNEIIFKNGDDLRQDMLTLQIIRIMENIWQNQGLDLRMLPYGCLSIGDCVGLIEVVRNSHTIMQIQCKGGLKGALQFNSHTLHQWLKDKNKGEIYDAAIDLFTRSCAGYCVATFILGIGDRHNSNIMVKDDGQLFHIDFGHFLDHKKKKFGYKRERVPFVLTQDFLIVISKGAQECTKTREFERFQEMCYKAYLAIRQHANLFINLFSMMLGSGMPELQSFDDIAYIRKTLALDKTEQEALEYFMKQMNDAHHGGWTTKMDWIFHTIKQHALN
Sequence (P27986 whole entry partner): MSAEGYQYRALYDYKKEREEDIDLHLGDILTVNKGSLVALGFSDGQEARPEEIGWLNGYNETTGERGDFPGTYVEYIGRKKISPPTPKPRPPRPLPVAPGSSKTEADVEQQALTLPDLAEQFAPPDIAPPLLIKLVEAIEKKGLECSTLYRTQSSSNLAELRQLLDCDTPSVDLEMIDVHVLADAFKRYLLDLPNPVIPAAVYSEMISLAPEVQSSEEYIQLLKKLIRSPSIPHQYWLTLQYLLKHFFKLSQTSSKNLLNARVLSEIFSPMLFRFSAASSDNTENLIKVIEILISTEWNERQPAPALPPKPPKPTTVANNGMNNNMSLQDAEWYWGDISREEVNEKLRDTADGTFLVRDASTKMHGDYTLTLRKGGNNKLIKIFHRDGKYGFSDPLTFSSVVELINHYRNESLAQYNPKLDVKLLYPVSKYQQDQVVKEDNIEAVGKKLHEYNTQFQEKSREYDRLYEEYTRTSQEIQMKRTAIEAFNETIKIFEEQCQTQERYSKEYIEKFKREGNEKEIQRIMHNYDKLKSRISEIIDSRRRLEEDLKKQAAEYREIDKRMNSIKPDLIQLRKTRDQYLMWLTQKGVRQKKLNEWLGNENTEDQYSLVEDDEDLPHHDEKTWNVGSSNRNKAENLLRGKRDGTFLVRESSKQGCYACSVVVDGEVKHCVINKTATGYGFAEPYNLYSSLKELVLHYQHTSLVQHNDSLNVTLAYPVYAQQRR
pIC50: −log10 of the molar value.
Measurement name: pIC50

compound="O=C1CC2(CCN(Cc3cn4cc(-c5cccc6[nH]ncc56)nc(N5CCOCC5)c4n3)CC2)CN1 [2-131]" quantitative_readout=4.85
compound="O=C(c1cn2cc(-c3cccc4[nH]ncc34)nc(N3CCOCC3)c2n1)N1CCCC1 [2-87]" quantitative_readout=6.45
compound="NC(=O)c1cn2cc(-c3cccc4[nH]cc(Cl)c34)nc(N3CCOCC3)c2n1 [2-103]" quantitative_readout=4.47
compound="CS(=O)(=O)N1CCC2(CCN(Cc3cn4cc(-c5cccc6[nH]ncc56)nc(N5CCOCC5)c4n3)C2)CC1 [2-129]" quantitative_readout=5.60
